assayed-system: T1, human PD-1 protein (human, UniProt Q15116 25-167, limits assumed)
T1 construct: also called human PD-1 antigen
T1 sequence (Q15116 25-167 limits assumed): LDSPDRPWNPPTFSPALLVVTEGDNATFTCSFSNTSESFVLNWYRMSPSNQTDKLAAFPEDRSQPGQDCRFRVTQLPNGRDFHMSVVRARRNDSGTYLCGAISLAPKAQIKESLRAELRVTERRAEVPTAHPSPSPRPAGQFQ
assay-method-text: SPR, binding kinetics to human PD-1

binder	kon [M⁻¹ s⁻¹]
AHF16557 (antibody, V domains shown) VH: QVQLVQSGAEVKKPGASVKVSCKASGYTFTGYWMHWVRQAPGQGLEWIGMIHPNSDTTVYNWKFKNRVTMTRDTSISTAYMELSRLRSDDTAVYYCAGTDQAAWAGFWGQGTTVTVSS VL: DIVMTQTPLSLSVTPGQPASISCRSSQNIVHSQGDTYLEWYLQKPGQSPQLLIYKVSKRFSGVPDRFSGSGSGTDFTLKISRVEAEDVGVYYCFQGSHVPWTFGGGTKVEIK	204000
AHF16568 (antibody, V domains shown) VH: QVQLVQSGAEVKKPGASVKVSCKASGYTFTGYWMHWVRQAPGQGLEWIGMIHPNSDTTIYNWKFKNRVTMTRDTSISTAYMELSRLRSDDTAVYYCAGTDQEAWMGFWGQGTTVTVSS VL: DIVMTQTPLSLSVTPGQPASISCRSSQNIVRSQGDTYLEWYLQKPGQSPQLLIYKVSKRFSGVPDRFSGSGSGTDFTLKISRVEAEDVGVYYCFQGSHVPWTFGGGTKVEIK	146000
AHF16559 (antibody, V domains shown) VH: QVQLVQSGAEVKKPGASVKVSCKASGYTFTGYWMHWVRQAPGQGLEWIGMIHPNSDTTVYNEKFKNRVTMTRDTSISTAYMELSRLRSDDTAVYYCAGTDQAAWHAFWGQGTTVTVSS VL: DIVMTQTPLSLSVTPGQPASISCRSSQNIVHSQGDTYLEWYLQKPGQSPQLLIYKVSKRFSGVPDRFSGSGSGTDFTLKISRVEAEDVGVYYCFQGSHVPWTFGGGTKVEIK	206000
